- target desc: T1, human TNFR2 (Homo sapiens, UniProt P20333 23-461)
- T1 construct: also called hTNFR2; TNFRSF1B
- T1 sequence: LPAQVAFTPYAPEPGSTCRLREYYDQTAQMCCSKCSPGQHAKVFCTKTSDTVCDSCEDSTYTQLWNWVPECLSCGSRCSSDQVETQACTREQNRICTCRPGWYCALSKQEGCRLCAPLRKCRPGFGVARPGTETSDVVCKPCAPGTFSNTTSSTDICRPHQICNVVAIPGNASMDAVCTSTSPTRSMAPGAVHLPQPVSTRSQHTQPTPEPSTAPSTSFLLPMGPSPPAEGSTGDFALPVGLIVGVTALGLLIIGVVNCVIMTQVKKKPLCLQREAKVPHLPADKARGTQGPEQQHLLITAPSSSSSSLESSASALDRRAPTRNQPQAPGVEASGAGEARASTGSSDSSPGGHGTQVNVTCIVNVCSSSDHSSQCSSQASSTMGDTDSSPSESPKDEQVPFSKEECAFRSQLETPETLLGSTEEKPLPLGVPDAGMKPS
- assay explanation: flow cytometry on HEK293T cells stably overexpressing human TNFR2, Alexa Fluor 647 secondary antibody
The reader will find reported EC50 (read off the curve) values listed item by item below.
result type: EC50 (read off the curve)

>  <binder>
R2_mAb-1 (antibody, V domains shown, also called R2-1) VH: QVQLVESGGGVVQPGRSLRLSCAASGFTFSSYGMHWVRQAPGKGLEWVAVIWFDEDNKDYADSVKGRFTISRDNSKNTLYLQMSSLRAEDTAVYYCARDNDILTGYYYYYGMDVWGQGTTVTVSS VL: DIQLTQSPSFLSASVGDRVTITCRASQDISSYLAWYQQKPGKAPKLLIYAASTLQSGVPSRFSGSGSGTEFTLTISSLQPEDFATYYCQQLNSYPPTFGQGTKVEIK

>  <data value>
~0.1 nM

$$$$
>  <binder>
R2_mAb-3 (antibody, V domains shown, also called R2-3) VH: QVQLQESGPGLVKPSETLSLTCTVSGGSISSYYWSWIRQAPGKGLEWIGYIYYSGSTNYNPSLKSRVTISVDTSKNQFSLKLSSVTAADTAVYYCARDDGSSDYGMDVWGQGTTVTVSS VL: AIQLTQSPSSLSASVGDRVTITCRASQGISSALAWYQQKPGKAPKLLIYDASSLESGVPSRFTGSGTDFTLTISSLQPEDFATYYCQQFNNYMYTFGQGTKLEIK

>  <data value>
~0.4 nM

$$$$
>  <binder>
R2_mAb-6 (antibody, V domains shown, also called R2-6) VH: QVQLVQSGAEVKKPGASVKVSCKASGYTFLSYGLSWVRQAPGQGLEWMGWINAYNGNTNYAQNLQDRVTMTTDTSTSTAYMELRSLRSDDMAVYYCARWDILTAYYSSDAFDIWGQGTMVTVSS VL: DIVMTQTPLSSPVTLGQPASISCRSSQSLVHSDGNTYLNWLQQRPGQPPRLLIYKVSNRFSGVPDRFSGSGAGTDFTLKISRVEAEDVGVYYCTQTTQFPITFGQGTRLEIK

>  <data value>
~0.1 nM

$$$$
>  <binder>
R2_mAb-2 (antibody, V domains shown, also called R2-2) VH: QVQLVQSGPEVKKPGASVKVSCKASGYTFTNYGISWVRQAPGQGLEWMGWINAYNGNTNYAQKLQGRVTMTTDTSTSTAYMELRSLRSDDTAVYYCARDGGYGSGTYHNDYYYYYGMDVWGQGTTVTVSS VL: EIVLTQSPDFQSMTPEEKVTITCRASQSIGSNLHWYQQKPDQSPKLLIKFASQSISGVPSRFSGSGSGTDFTLTINSLEAEDAATYYCHQSSSLPFTFGPGTKVDIK

>  <data value>
~0.3 nM

$$$$
>  <binder>
R2_mAb-5 (antibody, V domains shown, also called R2-5) VH: QVQLVQSGAEVKKPGASVTVSCKASGYTFSTYGIIWVRQAPGQGLEWMGWISAFNGNANSAQKLQDRVTMTTDTSTSTAYMELRSLRSDDTAVYYCARGEDFFDYWGQGTLVTVSS VL: DIVMTQTPLSSPVTLGQPASISCRSSQSLVHSDGNTYLSWLQQRPGQPPRLLIYKVSSRFSGVPDRFSGSGAGTDFTLKISRVEAEDVGVYYCTQSTQFPFTFGRGTKLEIK

>  <data value>
~0.1 nM

$$$$
